pIC50: −log10 of the molar value.
Recorded pIC50 values (Tyrosine-protein kinase JAK2 (Homo sapiens, UniProt O60674)) are given below.
Recorded metric: pIC50

1. O=c1[nH]c2cnc(-n3cnc4ccccc43)nc2n1C1CCOc2ccccc21 (racemic) :: 6.77
2. O=c1[nH]c2cnc(-n3cnc4ccccc43)nc2n1C1CCOc2c(F)cccc21 (racemic) :: 6.55
3. O=c1[nH]c2cnc(-n3cnc4cc(C(F)(F)F)ccc43)nc2n1C1CCOCC1 :: 5.74
4. N#Cc1ccc2ncn(-c3ncc4[nH]c(=O)n(C5CCOCC5)c4n3)c2c1 :: 6.33
5. O=c1[nH]c2cnc(-n3cnc4ccc(F)cc43)nc2n1C1CCOCC1 :: 5.47

###

- Target: Tyrosine-protein kinase JAK2 (Homo sapiens)
- Sequence (O60674 whole entry): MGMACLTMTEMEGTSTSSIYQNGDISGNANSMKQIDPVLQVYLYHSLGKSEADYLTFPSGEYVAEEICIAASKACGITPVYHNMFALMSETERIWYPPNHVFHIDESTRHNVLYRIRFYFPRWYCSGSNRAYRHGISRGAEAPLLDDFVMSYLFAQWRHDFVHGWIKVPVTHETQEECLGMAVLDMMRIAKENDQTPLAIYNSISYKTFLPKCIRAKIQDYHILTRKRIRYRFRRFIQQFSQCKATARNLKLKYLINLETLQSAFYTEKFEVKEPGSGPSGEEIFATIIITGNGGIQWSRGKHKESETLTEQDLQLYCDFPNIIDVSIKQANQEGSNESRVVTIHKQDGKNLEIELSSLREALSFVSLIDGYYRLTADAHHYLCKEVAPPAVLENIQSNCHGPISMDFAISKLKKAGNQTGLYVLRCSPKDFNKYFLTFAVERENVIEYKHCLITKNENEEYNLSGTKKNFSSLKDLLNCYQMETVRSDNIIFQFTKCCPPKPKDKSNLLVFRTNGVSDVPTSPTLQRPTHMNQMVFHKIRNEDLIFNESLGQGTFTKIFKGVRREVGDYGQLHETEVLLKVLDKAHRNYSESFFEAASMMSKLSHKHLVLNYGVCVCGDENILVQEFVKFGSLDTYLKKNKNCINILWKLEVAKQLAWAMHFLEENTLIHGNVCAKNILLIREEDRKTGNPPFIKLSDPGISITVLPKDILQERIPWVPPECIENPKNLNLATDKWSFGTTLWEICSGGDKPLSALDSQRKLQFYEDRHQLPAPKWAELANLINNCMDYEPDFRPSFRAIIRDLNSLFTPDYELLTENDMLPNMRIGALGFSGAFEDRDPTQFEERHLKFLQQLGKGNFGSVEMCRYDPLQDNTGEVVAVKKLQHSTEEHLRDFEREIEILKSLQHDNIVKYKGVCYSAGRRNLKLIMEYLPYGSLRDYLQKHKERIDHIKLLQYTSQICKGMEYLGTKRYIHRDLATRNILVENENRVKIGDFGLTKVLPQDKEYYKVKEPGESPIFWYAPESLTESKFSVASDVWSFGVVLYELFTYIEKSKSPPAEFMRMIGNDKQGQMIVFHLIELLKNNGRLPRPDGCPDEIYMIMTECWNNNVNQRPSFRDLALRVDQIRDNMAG
Recorded metric: IC50 (nM)

1) O=c1[nH]c2cnc(-n3cnc4ccc(F)cc43)nc2n1Cc1cccc(F)c1F :: 1000
2) O=c1[nH]c2cnc(-n3cnc4ccccc43)nc2n1C1CCOc2ccc(Cl)cc21 (racemic) :: 500
3) O=c1[nH]c2cnc(-n3cnc4ccccc43)nc2n1[C@H]1CCOc2c(F)cccc21 :: 7000
4) O=c1[nH]c2cnc(-n3cnc4ccc(F)cc43)nc2n1Cc1c(F)cccc1F :: 320
5) N#Cc1ccc2ncn(-c3ncc4[nH]c(=O)n(Cc5c(F)cccc5F)c4n3)c2c1 :: 28
